Readings of solubility (mole fraction) for the listed compounds
details: in n-hexadecane, 318.2 K
// keep it numeric: no unit symbol after the value

C[C@@H]1CC[C@@]2(OC1)O[C@H]1C[C@H]3[C@@H]4CC=C5C[C@@H](O)CC[C@]5(C)[C@H]4CC[C@]3(C)[C@H]1[C@@H]2C ... 0.00131

Next compound, solubility (mole fraction) to be filled in.
Dear colleague, I am looking for the recorded solubility (mole fraction) of the following compound: `C[C@]12CC[C@@H]3c4ccc(O)cc4CC[C@H]3[C@@H]1C[C@@H](O)[C@@H]2O`
0.00299

====

settings: in morpholine-4-carbaldehyde, 328.2 K
Readings of solubility (mole fraction) for the listed compounds
// keep it numeric: no unit symbol after the value

C[C@@H]1CC[C@@]2(OC1)O[C@H]1C[C@H]3[C@@H]4CC=C5C[C@@H](O)CC[C@]5(C)[C@H]4CC[C@]3(C)[C@H]1[C@@H]2C ... 0.0198

Dear colleague, I am looking for the recorded solubility (mole fraction) of the following compound: `C[C@]12CC[C@@H]3c4ccc(O)cc4CC[C@H]3[C@@H]1C[C@@H](O)[C@@H]2O`
0.0107

====

details: in sec-butanol, 293.2 K
OBSERVATION TYPE: solubility (mole fraction)
// keep it numeric: no unit symbol after the value

C[C@@H]1CC[C@@]2(OC1)O[C@H]1C[C@H]3[C@@H]4CC=C5C[C@@H](O)CC[C@]5(C)[C@H]4CC[C@]3(C)[C@H]1[C@@H]2C ... 0.000128

Next compound, solubility (mole fraction) to be filled in.
Dear colleague, I am looking for the recorded solubility (mole fraction) of the following compound: `C[C@]12CC[C@@H]3c4ccc(O)cc4CC[C@H]3[C@@H]1C[C@@H](O)[C@@H]2O`
0.00189

====

conditions: in n-dodecane, 313.2 K
Readings of solubility (mole fraction) for the listed molecules

C[C@]12CC[C@@H]3c4ccc(O)cc4CC[C@H]3[C@@H]1C[C@@H](O)[C@@H]2O ... 0.00128

Next molecule, solubility (mole fraction) to be filled in.
Dear colleague, I am looking for the recorded solubility (mole fraction) of the following molecule: `C[C@@H]1CC[C@@]2(OC1)O[C@H]1C[C@H]3[C@@H]4CC=C5C[C@@H](O)CC[C@]5(C)[C@H]4CC[C@]3(C)[C@H]1[C@@H]2C`
0.000631

====

Readings of solubility (mole fraction) for the listed compounds
conditions: in DMF, 293.2 K
// keep it numeric: no unit symbol after the value

C[C@@H]1CC[C@@]2(OC1)O[C@H]1C[C@H]3[C@@H]4CC=C5C[C@@H](O)CC[C@]5(C)[C@H]4CC[C@]3(C)[C@H]1[C@@H]2C ... 0.00113

Next compound, solubility (mole fraction) to be filled in.
Dear colleague, I am looking for the recorded solubility (mole fraction) of the following compound: `C[C@]12CC[C@@H]3c4ccc(O)cc4CC[C@H]3[C@@H]1C[C@@H](O)[C@@H]2O`
0.00112

====

Readings of solubility (mole fraction) for the listed molecules
conditions: in n-nonanol, 308.2 K
// keep it numeric: no unit symbol after the value

C[C@@H]1CC[C@@]2(OC1)O[C@H]1C[C@H]3[C@@H]4CC=C5C[C@@H](O)CC[C@]5(C)[C@H]4CC[C@]3(C)[C@H]1[C@@H]2C ... 0.011

Next molecule, solubility (mole fraction) to be filled in.
Dear colleague, I am looking for the recorded solubility (mole fraction) of the following molecule: `C[C@]12CC[C@@H]3c4ccc(O)cc4CC[C@H]3[C@@H]1C[C@@H](O)[C@@H]2O`
0.0116

====

Readings of solubility (mole fraction) for the listed compounds
settings: in DMF, 328.2 K
// keep it numeric: no unit symbol after the value

C[C@]12CC[C@@H]3c4ccc(O)cc4CC[C@H]3[C@@H]1C[C@@H](O)[C@@H]2O ... 0.018

Dear colleague, I am looking for the recorded solubility (mole fraction) of the following compound: `C[C@@H]1CC[C@@]2(OC1)O[C@H]1C[C@H]3[C@@H]4CC=C5C[C@@H](O)CC[C@]5(C)[C@H]4CC[C@]3(C)[C@H]1[C@@H]2C`
0.0116

====

conditions: in n-octane, 303.2 K
Readings of solubility (mole fraction) for the listed compounds

C[C@]12CC[C@@H]3c4ccc(O)cc4CC[C@H]3[C@@H]1C[C@@H](O)[C@@H]2O ... 0.000873

Next compound, solubility (mole fraction) to be filled in.
Dear colleague, I am looking for the recorded solubility (mole fraction) of the following compound: `C[C@@H]1CC[C@@]2(OC1)O[C@H]1C[C@H]3[C@@H]4CC=C5C[C@@H](O)CC[C@]5(C)[C@H]4CC[C@]3(C)[C@H]1[C@@H]2C`
0.00016

====

details: in n-dodecane, 303.2 K
OBSERVATION TYPE: solubility (mole fraction)

C[C@]12CC[C@@H]3c4ccc(O)cc4CC[C@H]3[C@@H]1C[C@@H](O)[C@@H]2O ... 0.00092

Next molecule, solubility (mole fraction) to be filled in.
Dear colleague, I am looking for the recorded solubility (mole fraction) of the following molecule: `C[C@@H]1CC[C@@]2(OC1)O[C@H]1C[C@H]3[C@@H]4CC=C5C[C@@H](O)CC[C@]5(C)[C@H]4CC[C@]3(C)[C@H]1[C@@H]2C`
0.000439

====

Readings of solubility (mole fraction) for the listed compounds
details: in 2-aminoethanol, 298.2 K
// keep it numeric: no unit symbol after the value

C[C@]12CC[C@@H]3c4ccc(O)cc4CC[C@H]3[C@@H]1C[C@@H](O)[C@@H]2O ... 0.0127

Next compound, solubility (mole fraction) to be filled in.
Dear colleague, I am looking for the recorded solubility (mole fraction) of the following compound: `C[C@@H]1CC[C@@]2(OC1)O[C@H]1C[C@H]3[C@@H]4CC=C5C[C@@H](O)CC[C@]5(C)[C@H]4CC[C@]3(C)[C@H]1[C@@H]2C`
0.00218

====

conditions: in n-octanol, 328.2 K
OBSERVATION TYPE: solubility (mole fraction)
// keep it numeric: no unit symbol after the value

C[C@]12CC[C@@H]3c4ccc(O)cc4CC[C@H]3[C@@H]1C[C@@H](O)[C@@H]2O ... 0.0171

Next compound, solubility (mole fraction) to be filled in.
Dear colleague, I am looking for the recorded solubility (mole fraction) of the following compound: `C[C@@H]1CC[C@@]2(OC1)O[C@H]1C[C@H]3[C@@H]4CC=C5C[C@@H](O)CC[C@]5(C)[C@H]4CC[C@]3(C)[C@H]1[C@@H]2C`
0.0116

====

settings: in water, 323.2 K
OBSERVATION TYPE: solubility (mole fraction)
// keep it numeric: no unit symbol after the value

Dear colleague, I am looking for the recorded solubility (mole fraction) of the following compound: `C[C@]12CC[C@@H]3c4ccc(O)cc4CC[C@H]3[C@@H]1C[C@@H](O)[C@@H]2O`
0.000577

====

settings: in water, 313.2 K
OBSERVATION TYPE: solubility (mole fraction)
// keep it numeric: no unit symbol after the value

Dear colleague, I am looking for the recorded solubility (mole fraction) of the following compound: `C[C@]12CC[C@@H]3c4ccc(O)cc4CC[C@H]3[C@@H]1C[C@@H](O)[C@@H]2O`
0.000306

====

settings: in water, 293.2 K
OBSERVATION TYPE: solubility (mole fraction)
// keep it numeric: no unit symbol after the value

Dear colleague, I am looking for the recorded solubility (mole fraction) of the following molecule: `C[C@]12CC[C@@H]3c4ccc(O)cc4CC[C@H]3[C@@H]1C[C@@H](O)[C@@H]2O`
0.000115

====

conditions: in n-pentanol, 293.2 K
OBSERVATION TYPE: solubility (mole fraction)

Dear colleague, I am looking for the recorded solubility (mole fraction) of the following molecule: `C[C@]12CC[C@@H]3c4ccc(O)cc4CC[C@H]3[C@@H]1C[C@@H](O)[C@@H]2O`
0.00243

====

settings: in n-pentanol, 328.2 K
OBSERVATION TYPE: solubility (mole fraction)
// keep it numeric: no unit symbol after the value

Dear colleague, I am looking for the recorded solubility (mole fraction) of the following molecule: `C[C@]12CC[C@@H]3c4ccc(O)cc4CC[C@H]3[C@@H]1C[C@@H](O)[C@@H]2O`
0.0121

====

conditions: in morpholine-4-carbaldehyde, 293.2 K
OBSERVATION TYPE: solubility (mole fraction)

C[C@@H]1CC[C@@]2(OC1)O[C@H]1C[C@H]3[C@@H]4CC=C5C[C@@H](O)CC[C@]5(C)[C@H]4CC[C@]3(C)[C@H]1[C@@H]2C ... 0.00663

Next compound, solubility (mole fraction) to be filled in.
Dear colleague, I am looking for the recorded solubility (mole fraction) of the following compound: `C[C@]12CC[C@@H]3c4ccc(O)cc4CC[C@H]3[C@@H]1C[C@@H](O)[C@@H]2O`
6.2e-05
